B1: CCDC6 (parent)
chain: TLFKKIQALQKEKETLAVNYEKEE

- Variants of: B1
- Protocol Details: protein stability index of a GFP-peptide fusion (GPS, HEK-293T) (PSI 1-6); higher = more stable;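 further: lentivirally expressed fusions sorted by FACS into six bins by GFP to DsRed ratio, PSI derived from sequencing read proportions per bin multiplied by bin number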
- Test Settings: c terminus: a fixed tail appended
Where protein stability index equals or exceeds 3, the correct label is y; where it does not, the label is n.

1) TLRKKIQALQKEKETLAVNYEKEE    y
2) TLFKKIQALQKEKETGAVNYEKEE    y
3) TLFKKIQALQKEQETLAVNYEKEE    y
4) TLFKKIQAKQKEKETLAVNYEKEE    y
5) TGFKKIQALQKEKETLAVNYEKEE    y

Then there is this variant:
Can TLFKKIQALQKEKETLADNYEKEE be said to have protein stability index at or above 3?
y
